Biological target: COX-2 enzyme (Homo sapiens)
Construct: purchased Cayman 701050
Test: biochemical
Settings: mean of two values; enzyme incubated with inhibitor 2 min, pH 8.0, 25 °C; arachidonic acid substrate; absorbance 590 nm
Method: All test samples were dissolved in DMSO and absorbance was read at 590 nm. The IC50 amounts of the novel compounds were analyzed using nonlinear regression with Dos-response inhibition parameter by the activity base software package (Program Prism, Graph Pad, SanDiego, CA).
// classify: if (IC50 < 3 µM) 1 else -1

The following molecules have reported results that may help.
{"Mol Smiles": "CS(=O)(=O)c1ncc(CNc2ccc(Cl)cc2)n1Cc1ccccc1", "Classification": -1}
{"Mol Smiles": "COc1ccc(NCc2cnc(S(C)(=O)=O)n2Cc2ccccc2)cc1", "Classification": 1}

Lookup: Please state whether IC50 is below 3 µM for CS(=O)(=O)c1ncc(CNc2ccccc2)n1Cc1ccccc1
Found: -1

Lookup: Criterion: IC50 strictly below 3 µM. Is it met by CS(=O)(=O)c1ncc(CNc2ccc(Br)cc2)n1Cc1ccccc1 ?
Found: 1

====

Below is a list of entries, each paired with its recorded IC50 value.
Target: COX-1 enzyme (Ovis aries)
Construct: purchased Cayman 701050
Sequence (P05979 25-600): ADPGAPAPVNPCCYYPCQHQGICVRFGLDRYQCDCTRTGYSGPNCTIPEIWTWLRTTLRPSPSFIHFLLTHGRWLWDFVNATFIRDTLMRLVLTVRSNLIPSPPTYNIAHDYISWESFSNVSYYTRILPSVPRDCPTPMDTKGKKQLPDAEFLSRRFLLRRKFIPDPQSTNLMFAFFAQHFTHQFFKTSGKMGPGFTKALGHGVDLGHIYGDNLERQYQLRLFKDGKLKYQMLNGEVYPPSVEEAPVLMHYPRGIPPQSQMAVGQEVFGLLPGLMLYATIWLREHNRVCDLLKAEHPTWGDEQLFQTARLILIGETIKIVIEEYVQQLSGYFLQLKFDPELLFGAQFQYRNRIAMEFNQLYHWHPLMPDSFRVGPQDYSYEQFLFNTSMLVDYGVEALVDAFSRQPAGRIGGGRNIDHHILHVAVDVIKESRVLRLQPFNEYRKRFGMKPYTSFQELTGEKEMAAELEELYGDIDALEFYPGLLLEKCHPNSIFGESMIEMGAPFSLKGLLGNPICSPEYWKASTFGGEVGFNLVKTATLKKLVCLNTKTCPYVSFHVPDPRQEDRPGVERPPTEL
Experiment: biochemical
Conditions: mean of two values; enzyme incubated with inhibitor 2 min, pH 8.0, 25 °C; arachidonic acid substrate; absorbance 590 nm
Answers without a unit are incomplete; give the number and then its unit.

# count of solved cases: 4
{"Mol Smiles": "CS(=O)(=O)c1ncc(CNc2ccc(Br)cc2)n1Cc1ccccc1", "Parameter Measured": "IC50", "Result": "78 µM"}
{"Mol Smiles": "CS(=O)(=O)c1ncc(CNc2ccccc2)n1Cc1ccccc1", "Parameter Measured": "IC50", "Result": "87 µM"}
{"Mol Smiles": "CS(=O)(=O)c1ncc(CNc2ccc([N+](=O)[O-])cc2)n1Cc1ccccc1", "Parameter Measured": "IC50", "Result": "78 µM"}
{"Mol Smiles": "COc1ccc(NCc2cnc(S(C)(=O)=O)n2Cc2ccccc2)cc1", "Parameter Measured": "IC50", "Result": "82 µM"}

Lookup: Given CS(=O)(=O)c1ncc(CNc2ccc(Cl)cc2)n1Cc1ccccc1 , state its recorded IC50.
Found: 138 µM

====

Parameter Measured: melting point (°C)
Number only, in °C; omit the unit.

{"Mol Smiles": "CS(=O)(=O)c1ncc(CNc2ccc(Br)cc2)n1Cc1ccccc1", "melting point, °C": 155}
{"Mol Smiles": "CS(=O)(=O)c1ncc(CNc2ccc(Cl)cc2)n1Cc1ccccc1", "melting point, °C": 142}
{"Mol Smiles": "COc1ccc(NCc2cnc(S(C)(=O)=O)n2Cc2ccccc2)cc1", "melting point, °C": 152}

Lab note: next molecule to report on.
Lookup: What does the record list as melting point for CS(=O)(=O)c1ncc(CNc2ccc([N+](=O)[O-])cc2)n1Cc1ccccc1 ?
Found: 177

====

Biological target: COX-2 enzyme (Homo sapiens, UniProt P35354)
Construct: purchased Cayman 701050
Sequence (P35354 18-604): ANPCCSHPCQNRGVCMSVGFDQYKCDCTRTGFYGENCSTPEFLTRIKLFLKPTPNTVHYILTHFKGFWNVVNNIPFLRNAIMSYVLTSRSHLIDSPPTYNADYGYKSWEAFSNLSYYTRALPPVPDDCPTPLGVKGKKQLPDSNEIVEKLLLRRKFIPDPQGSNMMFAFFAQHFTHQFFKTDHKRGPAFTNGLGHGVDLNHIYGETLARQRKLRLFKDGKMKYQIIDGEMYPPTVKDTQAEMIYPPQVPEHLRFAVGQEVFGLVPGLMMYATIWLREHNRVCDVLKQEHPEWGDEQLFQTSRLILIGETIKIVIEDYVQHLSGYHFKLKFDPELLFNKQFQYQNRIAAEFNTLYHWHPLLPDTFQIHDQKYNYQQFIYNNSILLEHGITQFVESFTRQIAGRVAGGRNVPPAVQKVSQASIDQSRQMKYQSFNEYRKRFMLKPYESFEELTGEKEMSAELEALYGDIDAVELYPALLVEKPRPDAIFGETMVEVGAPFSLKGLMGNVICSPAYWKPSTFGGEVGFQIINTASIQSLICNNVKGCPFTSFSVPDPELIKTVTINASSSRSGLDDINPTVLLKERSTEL
Test: biochemical
Conditions: ratio IC50 COX-1 / IC50 COX-2
Parameter Measured: COX-2 S.I. (in-vitro COX-2 selectivity index, COX-1/COX-2)
Write no unit; give the number alone.

{"Mol Smiles": "CS(=O)(=O)c1ncc(CNc2ccccc2)n1Cc1ccccc1", "Target Or System": "COX-2 enzyme (Homo sapiens, UniProt P35354)", "Measured Number": 27}
{"Mol Smiles": "COc1ccc(NCc2cnc(S(C)(=O)=O)n2Cc2ccccc2)cc1", "Target Or System": "COX-2 enzyme (Homo sapiens, UniProt P35354)", "Measured Number": 115}
{"Mol Smiles": "CS(=O)(=O)c1ncc(CNc2ccc(Cl)cc2)n1Cc1ccccc1", "Target Or System": "COX-2 enzyme (Homo sapiens, UniProt P35354)", "Measured Number": 38}
{"Mol Smiles": "CS(=O)(=O)c1ncc(CNc2ccc(Br)cc2)n1Cc1ccccc1", "Target Or System": "COX-2 enzyme (Homo sapiens, UniProt P35354)", "Measured Number": 28}

Continue with the compound presented below.
Lookup: Param readout= COX-2 S.I. (in-vitro COX-2 selectivity index, COX-1/COX-2); system= COX-2 enzyme (Homo sapiens, UniProt P35354); entry= CS(=O)(=O)c1ncc(CNc2ccc([N+](=O)[O-])cc2)n1Cc1ccccc1 ; returns value.
Found: 26
